// provenance: patent US20070218086A1

- System: γδ T cells
- Procedure Text: in vivo Vγ9/Vδ2+ T cell stimulation in cynomolgus monkeys
- Condition Details: Macaca fascicularis, T-cell; in cynomolgus monkeys; dosage studies described in co-pending PCT/IB2003/006375
pEC50: −log10 of the molar value.
Readout Label: pEC50

Input C/C(=C\COP(=O)(O)OP(=O)(O)O)CO . Output pEC50: ~11.30
